Please go through the items and note down their ΔTm at 1000 µM.
- assayed-system: TbINO1 (Trypanosoma brucei brucei, UniProt Q5QQ46)
- Sequence (Q5QQ46 1-528): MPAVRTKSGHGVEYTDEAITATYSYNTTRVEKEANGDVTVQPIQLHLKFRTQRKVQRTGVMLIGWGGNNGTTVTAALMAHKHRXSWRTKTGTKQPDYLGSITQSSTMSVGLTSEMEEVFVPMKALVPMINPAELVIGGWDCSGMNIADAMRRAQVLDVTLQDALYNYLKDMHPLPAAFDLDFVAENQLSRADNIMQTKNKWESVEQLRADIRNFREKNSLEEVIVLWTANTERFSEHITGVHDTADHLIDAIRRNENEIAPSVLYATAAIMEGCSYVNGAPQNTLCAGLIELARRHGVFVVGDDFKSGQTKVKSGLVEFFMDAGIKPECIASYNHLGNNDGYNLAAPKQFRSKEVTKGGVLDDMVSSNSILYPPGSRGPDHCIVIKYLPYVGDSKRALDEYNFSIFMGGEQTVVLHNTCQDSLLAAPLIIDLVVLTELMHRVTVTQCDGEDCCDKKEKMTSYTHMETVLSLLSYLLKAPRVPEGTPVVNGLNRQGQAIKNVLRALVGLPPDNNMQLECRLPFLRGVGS
- assay-summary: biochemical
- Format: binding
- cond: Supplementary Table 1; compound 1mM; mean ± SD from Boltzman curve fitting; read-out: Tb Ino1 Tm Shift [˚C]
Write down the numeric answer in °C and omit the unit.

ΔTm at 1000 µM reading for c1cc(-c2ccncc2)ccn1 : 0.2

ΔTm at 1000 µM reading for O=C(O)c1cc2ccccc2cn1 [compound 555, isoquinoline‐3‐carboxylic acid hydrate] : 0.5

ΔTm at 1000 µM reading for CN1CCN(C)C1=O : 0.04

ΔTm at 1000 µM reading for NC1Cc2ccccc2C1 : 0.89

ΔTm at 1000 µM reading for O=C(O)c1ccc2ccccc2n1 : 0.1

ΔTm at 1000 µM reading for COc1cccc(N)c1 : 0.19

ΔTm at 1000 µM reading for N#Cc1cc(-c2ccccc2)oc1N : 0.04

ΔTm at 1000 µM reading for Cc1ccc2c(c1)OCO2 : 0.38

ΔTm at 1000 µM reading for CC(=O)c1ccc(C#N)cc1 : 0.19

---

- Tested on: A549 cells
- assay-summary: Cytotoxicity against A549 cells, Alamar Blue
- Type: cell-based
- cond: Homo sapiens, A549, 65 h; Supplementary Table 1; compound 0.5 mM; percentage of controls (n=1)
readout-kind: viability at 500 µM (%)
Write down the numeric answer in % and omit the unit.

viability at 500 µM reading for OCc1ccc(Oc2ccccn2)cc1 [compound 629, [4‐(pyrid‐2‐yloxy)phenyl]methanol] : 96.1

viability at 500 µM reading for O=C(O)C1COc2ccccc2C1 (centres unmarked) : 95.8

viability at 500 µM reading for CC(C)(C)OC(=O)Nc1cccs1 [compound 620, tert-butyl N-(2-thienyl)carbamate] : 109

viability at 500 µM reading for Cn1c(CO)cc2sccc21 : 121

viability at 500 µM reading for c1ccc2c(c1)CCO2 [compound 49, 2,3‐dihydrobenzo[b]furan] : 87.3

viability at 500 µM reading for NC(=S)c1ccsc1 [compound 148, thiophene‐3‐carbothioamide] : 99.6

viability at 500 µM reading for O=C(O)c1ccccc1-c1ccco1 : 124

viability at 500 µM reading for Nc1ccc2c(c1)OCCO2 [compound 193, 2,3‐dihydro‐1,4‐benzodioxin‐6‐amine] : 44.7

viability at 500 µM reading for N#Cc1cccc(-c2ccco2)c1 : 57.8

viability at 500 µM reading for OCc1ccnc(N2CCCCC2)c1 : 103

viability at 500 µM reading for CC(=O)c1cccc(F)c1 : 101

viability at 500 µM reading for Cc1onc(-c2ccccc2)c1N : 75.5

viability at 500 µM reading for N#Cc1ccc(N)cc1C(F)(F)F : 72.8

viability at 500 µM reading for NC(=S)N1CCOCC1 [compound 159, morpholine‐4‐carbothioamide] : 109

viability at 500 µM reading for COC(=O)c1ccoc1C [compound 132, methyl 2-methyl-3-furoate] : 100

viability at 500 µM reading for O=C(O)c1cc2sccc2s1 [compound 479, thieno[3,2‐b]thiophene‐2‐carboxylic acid] : 102

viability at 500 µM reading for O=C(O)Cc1cc(F)cc(F)c1 : 128
